test: In vitro rat plasma stability; format: in vitro ADME; conditions: 1 h
Reported Plasma stability (T = 1 h) by item:
Just the number in %, nothing appended.

Sample answers from the record:
Molecule	Readout units	Plasma stability (T = 1 h)
Cc1cc2c(C(=O)NCC(C)c3ccccc3)c(O)c(O)cc2c(O)c1-c1c(C)cc2c(C(=O)NCC(C)c3ccccc3)c(O)c(O)cc2c1O (single isomer, unassigned) [Compound 14]	%	41
Cc1cc2c(C(=O)NCC(C)c3ccccc3)c(O)c(O)cc2c(O)c1-c1c(C)cc2c(C(=O)NCC(C)c3ccccc3)c(O)c(O)cc2c1O (single isomer, unassigned) [Compound 12]	%	28
Cc1cc2c(C(=O)NC[C@@H](C)c3ccccc3)c(O)c(O)cc2c(O)c1-c1c(C)cc2c(C(=O)NC[C@H](C)c3ccccc3)c(O)c(O)cc2c1O (atropisomer, axis not shown)	%	41

stdin: Return reported Plasma stability (T = 1 h); argument: Cc1cc2c(C(=O)NCC(C)c3ccccc3)c(O)c(O)cc2c(O)c1-c1c(C)cc2c(C(=O)NCC(C)c3ccccc3)c(O)c(O)cc2c1O (single isomer, unassigned) [Compound 13]
stdout: 42

The origin of these recorded values is patent US8487131B2.
